Data credit: PubChem BioAssay AID1362

Answer each item with its documented inhibition.
- ASSAY DETAILS: growth inhibition of WT strain, primary screen, mitochondrial fusion inhibitor project, WT and mutant strains, chemical genetic (AID 1362)
- SETUP CONDITIONS: mitochondrial fusion phenotypic screen, mutant strain inhibition; at 10 µM
Among all 190,000 compounds or so, about 4,000 (2.1%) were called active. The sample as a whole holds a higher share of actives than the screen did.

Illustrative cases are given below, each with its answer.
COMPOUND | RESULT VALUE
O=C(CSc1nnc(Nc2ccccc2)s1)Nc1cccnc1Cl | -15.4%
COc1ccc(C2CC(c3cccs3)=NN2c2ccc(F)cc2)cc1OC (configuration not stated) | 11.7%
NC1=NC2(CCCCC2)N(c2ccc(F)cc2F)C(N)=N1 | -2.91%
CC(C)NC(=S)N1CCN(C(c2ccccc2)c2ccccc2)CC1 | 29.4%

For each entry beneath this line, provide reported inhibition.
1. COc1ccccc1NC(=S)N1CCN(C(c2ccccc2)c2ccccc2)CC1
2. COc1ccccc1NC(=S)N1CCC(NC(=O)C23CC4CC(CC(C4)C2)C3)CC1
3. CCCn1c(=S)[nH]c2ccc(C(F)(F)F)cc21

1: 38.3%; 2: 19%; 3: 12.1%

====

Answer each item with its documented inhibition.
- ASSAY DETAILS: growth inhibition of WT strain, primary screen, mitochondrial fusion inhibitor project, WT and mutant strains, chemical genetic (AID 1362)
- SETUP CONDITIONS: mitochondrial fusion phenotypic screen, mutant strain inhibition; at 10 µM
Out of some 190,000 compounds screened, about 4,000 (2.1%) were called active. For the sample, actives were picked, then their nearest neighbours and some compounds at random.
Give bare numbers, in %.

For each entry beneath this line, provide reported inhibition.
1. CCc1ccc2c(c1)C(c1ccc([N+](=O)[O-])cc1)=NNC(c1ccccc1)=N2
2. Cc1ccc(-c2nnn(CC(=O)N(Cc3ccco3)C(C(=O)NC(C)(C)C)c3ccncc3)n2)o1 (centres undefined)

1: 12; 2: -4.44

====

- ASSAY DETAILS: growth inhibition of WT strain, primary screen, mitochondrial fusion inhibitor project, WT and mutant strains, chemical genetic (AID 1362)
- SETUP CONDITIONS: mitochondrial fusion phenotypic screen, mutant strain inhibition; at 10 µM
About 4,000 (2.1%) of roughly 190,000 compounds were called active. Many of the other results were omitted from the sample, so actives are more common in it than they were.
Answer each item with its documented inhibition.
Give bare numbers, in %.

For each entry beneath this line, provide reported inhibition.
1. C=CCn1c(SCc2nnc(-c3ccccc3)o2)nnc1C(O)c1ccccc1 (stereo not given)
2. O=C(c1ccccc1)c1ccc(OCC(O)CN2CCCC2)cc1 (stereo not given)
3. CC(CC(=O)O)C(=O)c1ccc(Cl)c([N+](=O)[O-])c1 (stereo not given)
4. Cn1c(SCc2c(F)cccc2Cl)nnc1-c1cnccn1
5. Brc1ccc(CSc2ccc(-c3ccco3)nn2)cc1

-5.65
5.68
-4.59
-6.62
-1.7

====

Answer each item with its documented inhibition.
- ASSAY DETAILS: growth inhibition of WT strain, primary screen, mitochondrial fusion inhibitor project, WT and mutant strains, chemical genetic (AID 1362)
- SETUP CONDITIONS: mitochondrial fusion phenotypic screen, WT strain, growth inhibition; at 10 µM; stronger effect = higher value
About 4,000 (2.1%) of roughly 190,000 compounds were called active. The entries come from a sample that favours actives as a whole.

Illustrative cases are given below, each with its answer.
COMPOUND | inhibition
OCC1(Cc2ccccc2)CCN(Cc2cc3ccccc3o2)CC1 | 24.3% (inactive)
CC(C)C(c1nnnn1C(C)(C)C)N1CCN(Cc2cccnc2)CC1 (stereo not given) | -10.2% (inactive)
CCOC(=O)C1CCCN(C(=O)c2cccc(S(=O)(=O)N3CCOCC3)c2)C1 (stereo not given) | -0.28% (inactive)
NS(=O)(=O)c1cccc(NC(=O)CSc2nc3ccccc3n2-c2ccccc2)c1 | -7.39% (inactive)
Cc1cc(C)c2nc(NC(=O)c3ccc4c(c3)OCO4)sc2c1 | 14.1% (inactive)

For each entry beneath this line, provide reported inhibition.
1. Cc1cccc(C)c1NC(=O)C1(C)c2cccc[n+]2CC(=O)N1Cc1cccs1 (stereo not given)
2. O=C(OCC(=O)N1CCOCC1)c1ccc(N2CCOCC2)c([N+](=O)[O-])c1
3. O=C(COc1ccc(Cl)cc1[N+](=O)[O-])N1CCCCC1
4. O=C1COc2ccc(C(=O)COC(=O)C3CC(O)CN3S(=O)(=O)c3ccc(Cl)cc3)cc2N1 (stereo not given)
5. CCc1ccc(NC(=O)CSc2nnc(-c3cnccn3)n2Cc2ccco2)cc1

-7.87% (inactive)
-7.83% (inactive)
1.62% (inactive)
7.83% (inactive)
6.65% (inactive)

====

Answer each item with its documented inhibition.
- ASSAY DETAILS: growth inhibition of WT strain, primary screen, mitochondrial fusion inhibitor project, WT and mutant strains, chemical genetic (AID 1362)
- SETUP CONDITIONS: mitochondrial fusion phenotypic screen, mutant strain inhibition; at 10 µM
Out of some 190,000 compounds screened, about 4,000 (2.1%) were called active. What follows is part of a selection rich in actives, with near analogues and random picks from the rest.
Numbers only, in %.

Illustrative cases are given below, each with its answer.
MOLECULE | RESULT VALUE
CC(=O)Nc1nc2ccccc2n1Cc1ccc(C)cc1 | 15.5
CC(=O)Nc1cccc(-c2cnc3ccccc3n2)c1 | 9.81
CC(NC(=S)Nc1ccccc1)C1COc2ccccc2O1 (configuration not stated) | 2.67
Cc1ccc2nc(-c3ccccc3)cc(C(=O)O)c2c1 | 0.25
S=C(NCCc1ccccc1)N1CCCCC1 | 12.7
S=C(NCCc1ccccc1)NCc1ccccc1Cl | 35.9

For each entry beneath this line, provide reported inhibition.
1. O=C(COC(=O)c1ccc(O)cc1)Nc1nccs1
2. C/C(=C\c1ccco1)CN1CCC(N2CCC(C(=O)N3CCOCC3)CC2)CC1
3. O=C(c1ccc2c(c1)OCO2)N1CCN(C(=O)c2ccco2)CC1

[1.79, 2.35, -33.3]

For each entry beneath this line, provide reported inhibition.
1. S=C(NCC1COc2ccccc2O1)Nc1ccc(Br)cc1 (configuration not stated)
2. Cc1ccc(-n2cc(CN(C)Cc3nccn3C)c(-c3cccc(C)c3)n2)cc1
3. Cc1ccc(Cn2c(NC(=O)c3ccco3)nc3ccccc32)cc1
4. COc1cc(NC(=S)N2CCCC(C)C2)c(OC)cc1Cl (configuration not stated)

1: 7.77; 2: 64.6; 3: -2.81; 4: 1.38

For each entry beneath this line, provide reported inhibition.
1. O=C(N/N=C/C=C/c1ccco1)c1cccs1
2. O=c1[nH]c(CN2CCOCC2)nc2scc(-c3ccccc3)c12
3. O=C(CN1CCN(S(=O)(=O)c2ccc(Cl)s2)CC1)NCc1ccc(Cl)cc1
4. O=c1cc(CSc2ccc(Cl)cc2)nc(N2CCOCC2)[nH]1

1. -0.62
2. -6.95
3. -2.81
4. -7.43

====

- ASSAY DETAILS: growth inhibition of WT strain, primary screen, mitochondrial fusion inhibitor project, WT and mutant strains, chemical genetic (AID 1362)
- SETUP CONDITIONS: mitochondrial fusion phenotypic screen, WT strain, growth inhibition; at 10 µM; stronger effect = higher value
Screen size: about 190,000 compounds; about 4,000 (2.1%) were called active. The entries come from a sample that favours actives as a whole.
We use 10% as the dividing line for inhibition: on or above the line is Y, below is N.

Solved cases below.
COMPOUND | CATEGORY LABEL
CO/N=C/c1cn(-c2ccc(Cl)cc2)nn1 | N
CC(C)(CNC(=O)c1cc(=O)[nH]c2ccccc12)N1CCOCC1 | N
COC(=O)CSc1ccc2nnc(CCNS(=O)(=O)c3ccc(C)cc3)n2n1 | N
Cc1nnc(SCC(=O)N2c3ccccc3C(C)(c3ccc(Cl)cc3)CC2(C)C)s1 (configuration not stated) | Y

// switching to the query compound
Has Cc1cccc(C)c1OCC(O)CN1CCCCC1 (configuration not stated) a recorded inhibition greater than or equal to 10%? N

====

- ASSAY DETAILS: growth inhibition of WT strain, primary screen, mitochondrial fusion inhibitor project, WT and mutant strains, chemical genetic (AID 1362)
- SETUP CONDITIONS: mitochondrial fusion phenotypic screen, WT strain, growth inhibition; at 10 µM; stronger effect = higher value
About 4,000 (2.1%) of roughly 190,000 compounds were called active. This excerpt belongs to a sample that is enriched for actives.
READOUT KIND: inhibition (%)
Give bare numbers, in %.

Illustrative cases are given below, each with its answer.
COMPOUND | READOUT KIND | UNIT NAME | RESULT VALUE
CCOC(=O)/C(=C\c1ccc([N+](=O)[O-])cc1)C(=O)c1cc(C(C)=O)c(Nc2ccccc2)s1 | inhibition | % | 84.2
CCOc1ccc(C2c3[nH]c4ccccc4c3CCN2Cc2cn(CC)nc2C)cc1 (centres undefined) | inhibition | % | 36
C=CCNC(=S)NNC(=O)c1ccc(Br)o1 | inhibition | % | -3.81
CC(=O)Nc1ccccc1OC(C)C(=O)N1CCC(C)CC1 (centres undefined) | inhibition | % | -7.46
CN(c1cccc(NC(=O)Nc2ccc(Cl)cc2)c1)S(C)(=O)=O | inhibition | % | 96.2
COC(=O)CSc1nccc(-c2cccs2)n1 | inhibition | % | -15.2

For each entry beneath this line, provide reported inhibition.
1. O=C(COc1ccc(Cl)cc1)N1CCN(S(=O)(=O)c2ccc(Cl)cc2)CC1
2. Cc1nc2sc(C(=O)c3ccccc3)c(N)c2c2c1CCCC2

-16.2
66.8

For each entry beneath this line, provide reported inhibition.
1. COc1ccc(Br)cc1CN(C)CC(=O)Nc1cc([N+](=O)[O-])ccc1OC
2. Oc1ccc(N2CCN(C(=S)NCc3ccccc3)CC2)cc1

-3.27
-2.43

For each entry beneath this line, provide reported inhibition.
1. CC(=O)c1cccc(-n2nnnc2SCC(=O)NNC(=O)C2CCCCC2)c1
2. COc1ccc(Br)cc1CN(C)CC(=O)Nc1cc(Cl)cc(Cl)c1
3. O=C(COC(=O)c1ccco1)NCc1ccc(Cl)cc1

[6.05, 64.1, 2.75]
